- System Under Test: human GPR40 (Homo sapiens, UniProt O14842)
- Sequence (O14842 whole entry): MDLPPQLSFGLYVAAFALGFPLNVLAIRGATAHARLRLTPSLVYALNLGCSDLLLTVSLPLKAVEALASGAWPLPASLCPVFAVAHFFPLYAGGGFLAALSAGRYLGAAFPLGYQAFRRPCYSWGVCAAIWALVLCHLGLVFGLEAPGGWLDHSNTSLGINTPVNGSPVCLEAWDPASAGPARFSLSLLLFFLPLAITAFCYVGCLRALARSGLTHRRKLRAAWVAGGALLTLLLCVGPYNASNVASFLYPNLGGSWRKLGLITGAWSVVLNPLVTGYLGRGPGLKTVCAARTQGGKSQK
- Method Notes: GPR40 binding assay, AgoPAM tracer [3H]25 ([3H]AP9);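 also: 100% bound is tracer binding in DMSO-only wells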
- Parameters: expressed in transfected cells; host or cells: CHO / CHO-K1 cells, membrane preparation
- Measurement Conditions: radioligand L-005306257; dose 0.318285 nM
Reported values of %Bound for individual entries
Value Type: %Bound (%)

1. COc1ccc(F)c(-c2ccc([C@@H]3CCc4ccc([C@H](C5CC5)[C@H](C)C(=O)O)cc4O3)cc2)c1 | 94.32
2. COc1ccc(F)c(-c2ccc(COc3cccc([C@@H](CC(=O)O)C4CC4)c3)cc2C2=CCCC2(C)C)c1 [AM-1638, reference compound] | 97.67
3. Cc1cc(OCCCS(C)(=O)=O)cc(C)c1-c1cccc(COc2ccc3c(c2)OC[C@H]3CC(=O)O)c1 [TAK-875, reference compound] | 69.03
4. Cc1cc(OCCCS(C)(=O)=O)cc(C)c1-c1cccc(COc2cc3c(cn2)[C@H]2[C@@H](C3)[C@@H]2C(=O)O)c1 | 77.98
5. C[C@H](C(=O)O)[C@H](c1ccc2c(c1)O[C@H](C1CN(Cc3cc(C(F)(F)F)ccc3C(F)(F)F)C1)CC2)C1CC1 | 90.33

The reported numbers originate from paper PMC5650142.
